# assayed.system: human recombinant HDAC6 (Homo sapiens, UniProt Q9UBN7)
# Sequence (Q9UBN7 whole entry): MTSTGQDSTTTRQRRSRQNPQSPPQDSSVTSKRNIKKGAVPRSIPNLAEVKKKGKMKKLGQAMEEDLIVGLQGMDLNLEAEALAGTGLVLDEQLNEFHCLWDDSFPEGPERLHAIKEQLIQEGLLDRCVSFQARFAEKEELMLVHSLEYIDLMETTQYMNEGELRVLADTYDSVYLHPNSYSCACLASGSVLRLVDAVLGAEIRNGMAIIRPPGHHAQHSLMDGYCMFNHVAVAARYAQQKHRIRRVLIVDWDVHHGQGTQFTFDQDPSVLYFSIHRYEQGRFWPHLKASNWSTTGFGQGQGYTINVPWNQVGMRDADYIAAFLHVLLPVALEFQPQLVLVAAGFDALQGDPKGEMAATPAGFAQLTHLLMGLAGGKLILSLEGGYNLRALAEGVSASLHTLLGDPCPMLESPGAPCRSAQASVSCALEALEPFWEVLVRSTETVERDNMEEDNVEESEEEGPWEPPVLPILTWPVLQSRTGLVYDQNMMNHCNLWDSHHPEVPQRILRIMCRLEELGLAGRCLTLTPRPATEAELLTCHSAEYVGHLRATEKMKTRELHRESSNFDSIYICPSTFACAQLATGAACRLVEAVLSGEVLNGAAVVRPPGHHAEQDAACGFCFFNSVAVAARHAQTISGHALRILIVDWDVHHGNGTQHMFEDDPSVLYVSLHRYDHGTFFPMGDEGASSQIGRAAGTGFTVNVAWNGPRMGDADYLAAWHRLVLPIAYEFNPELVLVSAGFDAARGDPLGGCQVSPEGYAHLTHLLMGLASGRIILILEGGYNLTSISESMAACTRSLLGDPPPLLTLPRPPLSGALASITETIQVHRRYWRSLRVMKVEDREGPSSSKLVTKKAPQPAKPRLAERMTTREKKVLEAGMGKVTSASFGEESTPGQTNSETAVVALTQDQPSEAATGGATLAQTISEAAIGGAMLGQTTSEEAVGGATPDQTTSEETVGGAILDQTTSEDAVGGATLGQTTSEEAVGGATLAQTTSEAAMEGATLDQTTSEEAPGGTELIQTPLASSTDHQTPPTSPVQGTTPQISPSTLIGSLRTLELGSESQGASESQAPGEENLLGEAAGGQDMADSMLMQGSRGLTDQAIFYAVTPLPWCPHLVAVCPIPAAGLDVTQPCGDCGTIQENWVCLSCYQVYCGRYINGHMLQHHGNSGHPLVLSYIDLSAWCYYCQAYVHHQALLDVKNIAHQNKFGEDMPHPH
# assay.remarks: In vitro HDAC enzyme activity inhibition assay, HDAC6 (HDAC Fluorimetric Drug Discovery Kit)
# test.conditions: human recombinant HDAC6, same protocol as the HDAC1 test

smiles.record: O=C(N1CCN(C2CCOCC2)CC1)N(Cc1cn2ccc(-c3nnc(C(F)F)o3)cc2n1)c1cccc(F)c1
measurement.units: µM
IC50: 0.232
//
smiles.record: COC(=O)N1CCC(C(=O)N(Cc2cn3ccc(-c4nnc(C(F)F)o4)cc3n2)c2cccc(F)c2)CC1
measurement.units: µM
IC50: 0.229
//
smiles.record: O=C(C1CCN(C2COC2)CC1)N(Cc1cn2ccc(-c3nnc(C(F)F)o3)cc2n1)c1cccc(F)c1
measurement.units: µM
IC50: 0.214
//
smiles.record: CN(C)C(=O)N1CCC(C(=O)N(Cc2cn3ccc(-c4nnc(C(F)F)o4)cc3n2)c2ccccc2)CC1
measurement.units: µM
IC50: 0.375
//
smiles.record: CC(C)N1CCC(C(=O)N(Cc2cn3ccc(-c4nnc(C(F)F)o4)cc3n2)c2cccc(F)c2)CC1
measurement.units: µM
IC50: 0.124
//
smiles.record: CC(=O)N1CCN(C(=O)N(Cc2cn3ccc(-c4nnc(C(F)F)o4)cc3n2)c2cccc(F)c2)CC1
measurement.units: µM
IC50: 0.267
//
smiles.record: CN(C)C(=O)N1CCN(C(=O)N(Cc2cn3ccc(-c4nnc(C(F)F)o4)cc3n2)c2cccc(F)c2)CC1
measurement.units: µM
IC50: 0.139
//
smiles.record: O=C(N1CCN(C2CCCCC2)CC1)N(Cc1cn2ccc(-c3nnc(C(F)F)o3)cc2n1)c1cccc(F)c1
measurement.units: µM
IC50: 0.443
//
smiles.record: CC(C)N1CC(C(=O)N(Cc2cn3ccc(-c4nnc(C(F)F)o4)cc3n2)c2ccccc2)C1
measurement.units: µM
IC50: 0.202
//
smiles.record: CN(Cc1cn2ccc(-c3nnc(C(F)F)o3)cc2n1)c1ccccc1
measurement.units: µM
IC50: 0.177
//
smiles.record: O=C(N1CCN(c2ncccn2)CC1)N(Cc1cn2ccc(-c3nnc(C(F)F)o3)cc2n1)c1cccc(F)c1
measurement.units: µM
IC50: 0.108
//
smiles.record: CC(=O)N1CCN(C(=O)N(Cc2cn3ccc(-c4nnc(C(F)F)o4)cc3n2)c2ccccc2)CC1
measurement.units: µM
IC50: 0.119
//
smiles.record: O=C(C1CCC1)N1CC(C(=O)N(Cc2cn3ccc(-c4nnc(C(F)F)o4)cc3n2)c2cccc(F)c2)C1
measurement.units: µM
IC50: 0.22
//
smiles.record: CC(C)N1CCN(C(=O)N(Cc2cn3ccc(-c4nnc(C(F)F)o4)cc3n2)c2ccccc2)CC1
measurement.units: µM
IC50: 0.103
//
smiles.record: O=C(N1CCN(C2CCCCC2)CC1)N(Cc1cn2ccc(-c3nnc(C(F)F)o3)cc2n1)c1ccccc1
measurement.units: µM
IC50: 0.124
